Test system: BE-3 human esophageal adenocarcinoma cell line
Assay: Trypan blue exclusion test, cell viability
Format: cell-based
Settings: BE-3, 72 hours, read-out: IC50 (concentration required to reduce viability by 50%)
OUTCOME MEASURE: pIC50
Please treat pIC50 as minus the base-10 logarithm of the molar concentration.

Dear colleague, please send me the reported pIC50 for COc1cc(O)c(C(=O)O[C@@H]2C[C@]3(C)C4CC(C)(C)CC4C=C(C=O)[C@]23O)c(C)c1Cl (stereo partly shown) when you can. 5.27
